# Assayed target: HRgpA-6H (Porphyromonas gingivalis) (UniProt P28784)
# Method: ELISA, Fab FASEBA supernatant on coated HRgpA-6H
Measurement name: Ratio OD(Variant)/OD(WT)

A selection of reference data follows.
Binder	Measurement name	Recorded measurement
parental mouse (KB001) Fab FASEBA, VL variant A56P (Fab, V domains shown) VH: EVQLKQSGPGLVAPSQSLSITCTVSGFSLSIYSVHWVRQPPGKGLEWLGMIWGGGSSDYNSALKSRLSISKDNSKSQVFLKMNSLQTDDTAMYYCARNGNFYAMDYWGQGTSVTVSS VL: QIVLTQSPAIMSASLGERVTMTCTASSSVSSSFLHWYQQKPGSSPQLWIYSTSNLPSGVPARFSGSGSGTSYSLTISSMEAEDAATYYCHQYHHSPYIYTFGGGTKLEIK	Ratio OD(Variant)/OD(WT)	0.917 ratio to WT
parental mouse (KB001) Fab FASEBA, VL variant S57M (Fab, V domains shown) VH: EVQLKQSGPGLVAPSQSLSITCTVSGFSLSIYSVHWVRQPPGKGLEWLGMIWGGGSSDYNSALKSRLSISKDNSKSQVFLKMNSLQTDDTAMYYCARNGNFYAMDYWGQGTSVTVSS VL: QIVLTQSPAIMSASLGERVTMTCTASSSVSSSFLHWYQQKPGSSPQLWIYSTSNLAMGVPARFSGSGSGTSYSLTISSMEAEDAATYYCHQYHHSPYIYTFGGGTKLEIK	Ratio OD(Variant)/OD(WT)	0.914 ratio to WT
parental mouse (KB001) Fab FASEBA, VL variant L55R/S51G (Fab, V domains shown) VH: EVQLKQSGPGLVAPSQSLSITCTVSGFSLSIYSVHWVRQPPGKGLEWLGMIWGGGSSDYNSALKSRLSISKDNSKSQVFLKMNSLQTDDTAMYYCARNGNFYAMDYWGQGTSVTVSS VL: QIVLTQSPAIMSASLGERVTMTCTASSSVSSSFLHWYQQKPGSSPQLWIYGTSNRASGVPARFSGSGSGTSYSLTISSMEAEDAATYYCHQYHHSPYIYTFGGGTKLEIK	Ratio OD(Variant)/OD(WT)	0.955 ratio to WT
parental mouse (KB001) Fab FASEBA, VL variant S95F (Fab, V domains shown) VH: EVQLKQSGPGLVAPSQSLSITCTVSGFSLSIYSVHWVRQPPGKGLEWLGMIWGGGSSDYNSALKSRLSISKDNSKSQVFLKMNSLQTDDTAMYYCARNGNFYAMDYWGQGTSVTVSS VL: QIVLTQSPAIMSASLGERVTMTCTASSSVSSSFLHWYQQKPGSSPQLWIYSTSNLASGVPARFSGSGSGTSYSLTISSMEAEDAATYYCHQYHHFPYIYTFGGGTKLEIK	Ratio OD(Variant)/OD(WT)	0.911 ratio to WT
parental mouse (KB001) Fab FASEBA, VL variant S57E (Fab, V domains shown) VH: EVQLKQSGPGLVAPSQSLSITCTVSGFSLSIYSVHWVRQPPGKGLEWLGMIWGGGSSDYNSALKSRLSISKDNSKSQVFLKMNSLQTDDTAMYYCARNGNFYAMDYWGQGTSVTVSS VL: QIVLTQSPAIMSASLGERVTMTCTASSSVSSSFLHWYQQKPGSSPQLWIYSTSNLAEGVPARFSGSGSGTSYSLTISSMEAEDAATYYCHQYHHSPYIYTFGGGTKLEIK	Ratio OD(Variant)/OD(WT)	0.921 ratio to WT

Here is the next item to consider.
Prompt: Suppose we examine the binder parental mouse (KB001) Fab FASEBA, VL variant S95C (Fab, V domains shown) VH: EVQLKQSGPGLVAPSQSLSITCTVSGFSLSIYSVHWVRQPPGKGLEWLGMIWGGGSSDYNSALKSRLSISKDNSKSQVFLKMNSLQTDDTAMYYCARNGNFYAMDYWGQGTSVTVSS VL: QIVLTQSPAIMSASLGERVTMTCTASSSVSSSFLHWYQQKPGSSPQLWIYSTSNLASGVPARFSGSGSGTSYSLTISSMEAEDAATYYCHQYHHCPYIYTFGGGTKLEIK ; what Ratio OD(Variant)/OD(WT) value has been reported?
Completion: 0.924 ratio to WT
